Each item that follows carries a reported Cmax.
- Experimental details: Cmax after oral administration at 20 mpk in rats
- Format: ADME, organism-based
- Design: dose 20 mpk, route oral
- Cond: rat, in vivo, 20 mg/kg
Respond numerically; units are ng/mL and should not be typed.

| Smiles string | Readout units | Cmax |
| --- | --- | --- |
| COc1ccc(S(=O)(=O)N2CCC(Oc3ccc(OC(F)(F)F)cc3)CC2)c(C(=O)NO)c1OC | ng/mL | 5160 |
| O=C(NO)c1c(S(=O)(=O)N2CCC(Oc3ccc(C(F)(F)F)cc3)CC2)ccc2c1OCO2 | ng/mL | 3060 |

Turning now to a further molecule:
Cmax in this record for COc1ccc(S(=O)(=O)N2CCC(OCc3ccc4c(c3)OCO4)CC2)c(C(=O)NO)c1OC : 9200
